Origin of measurements: ChEMBL document CHEMBL1133527

Test system: Mus musculus
Assay: Acute toxicity against mice after ip administration
Format: organism-based
Details: in vivo
Just a reminder that ties go to N: only LD50 strictly below 3 mg kg-1 i.p. counts as Y.

Query: Hi there! Is LD50 for CCCCCC(=O)/C=C/C=C/C#CC#CCCCO below 3 mg kg-1 i.p., do you know?
Result: N

Query: Item CCC[C@@H](O)/C=C/C=C/C=C/C#CC#CCCCO [CICUTOXIN] : LD50 beneath 3 mg kg-1 i.p., strictly?
Result: Y

Query: Given the entry CCC[C@H](/C=C/C=C/C=C/C#CC#CCCCOC)OC , would its reported LD50 be below 3 mg kg-1 i.p.?
Result: N

Query: Is it true that LD50 reported for CCC[C@@H](O)/C=C/C=C/C=C/C#CC#CCCCOC is less than 3 mg kg-1 i.p.?
Result: N

Query: Field: below-cutoff. Rule: recorded LD50 strictly less than 3 mg kg-1 i.p.. Subject: C=C[C@@H](O)C#CC#C[C@@H](O)/C=C\CCCCCCC [FALCARINDIOL]
Result: N

Query: Is LD50 of CCCCCC(O)/C=C/C=C/C#CC#CCCCO (configuration not stated) strictly below 3 mg kg-1 i.p.?
Result: N

Query: Is it true that LD50 reported for CCCC(=O)CC/C=C/C=C/C#CC#CCCCO is less than 3 mg kg-1 i.p.?
Result: Y

Query: hey, is LD50 for CCCCCCC[C@H](O)/C=C/C#CC#CCCCO lower than 3 mg kg-1 i.p. or not?
Result: N

Query: I wonder whether CCCCCCC/C=C\C(=O)C#CC#CCCCO has LD50 below 3 mg kg-1 i.p.. Can you tell?
Result: N

Query: Consider CCCCC[C@H](O)/C=C/C=C/C#CCCCO . Does its LD50 lie strictly below 3 mg kg-1 i.p.?
Result: N

Query: Dear colleague, could you confirm whether LD50 of CCC[C@@H](O)/C=C/C=C/C=C/C#CC#CCCCOC(C)=O falls below 3 mg kg-1 i.p.? Thanks.
Result: Y

Query: Below 3 mg kg-1 i.p. on LD50? Entry CCC[C@H](/C=C/C=C/C=C/C#CC#CCCCO)OC(C)=O
Result: Y
